System: 5-HT1A human receptors (Homo sapiens, UniProt P08908)
Construct: expressed in transfected cells; host or cells: CHO cells
Protocol notes: 5-HT1A Radioligand Receptor Binding Assay ([3H]-8-OH-DPAT, CHO cell membranes)
Run conditions: compound at 10^-7 M, singlicate; [3H]-8-OH-DPAT 0.6-0.7 nM; read-out: 5-HT1A receptor binding assay % inhib. (10^-7 M)
Property label: inhibition at 0.1 µM (%)
Numbers only, in %.

Previously resolved entries follow.
COCCn1c(=O)n(C/C=C/CN2CCN(c3ccccc3)CC2)c2ccccc21: 89
O=c1n(C/C=C\CN2CCN(C(c3ccccc3)c3ccc(Cl)cc3)CC2)c2ccccc2n1CCN1CCCCC1 (stereo not shown): 59

Go through the list and state inhibition at 0.1 µM for each entry.
1. COCCn1c(=O)n(C/C=C\CN2CCN(c3ccc(Cl)c(Cl)c3)CC2)c2ccccc21
2. COc1ccccc1N1CCN(CCn2c(=O)n(CCNS(C)(=O)=O)c3ccccc32)CC1

Result:
[65, 58]

====

System: 5-HT1A human receptors (Homo sapiens)
Construct: expressed in transfected cells; host or cells: CHO cells
Sequence (P08908 1-422): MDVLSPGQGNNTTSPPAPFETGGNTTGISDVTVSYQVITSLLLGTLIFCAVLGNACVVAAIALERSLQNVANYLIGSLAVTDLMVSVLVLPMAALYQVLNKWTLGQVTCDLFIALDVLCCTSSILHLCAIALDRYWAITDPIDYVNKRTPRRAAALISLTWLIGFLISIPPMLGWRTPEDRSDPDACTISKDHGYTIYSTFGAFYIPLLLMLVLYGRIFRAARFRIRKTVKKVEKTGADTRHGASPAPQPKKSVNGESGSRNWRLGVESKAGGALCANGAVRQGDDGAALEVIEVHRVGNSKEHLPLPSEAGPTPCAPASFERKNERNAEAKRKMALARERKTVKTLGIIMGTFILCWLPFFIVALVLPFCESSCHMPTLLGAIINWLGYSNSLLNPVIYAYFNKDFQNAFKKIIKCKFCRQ
Protocol notes: 5-HT1A Radioligand Receptor Binding Assay ([3H]-8-OH-DPAT, CHO cell membranes)
Run conditions: compound at 10^-7 M, singlicate; [3H]-8-OH-DPAT 0.6-0.7 nM; read-out: 5-HT1A receptor binding assay % inhib. (10^-7 M)
Tick satisfied if inhibition at 0.1 µM is 90% or greater. Tick not satisfied if inhibition at 0.1 µM is less than 90%.

A selection of reference data follows.
CS(=O)(=O)NCCn1c(=O)n(C/C=C\CN2CCN(c3ccc(Cl)c(Cl)c3)CC2)c2ccccc21: not satisfied
O=c1n(C/C=C\CN2CCc3c([nH]c4ccccc34)C2)c2ccccc2n1CCO: not satisfied
O=c1n(C/C=C/CN2CCN(c3ccccc3)CC2)c2ccccc2n1CCO: not satisfied
O=c1n(CCO)c2ccccc2n1CCCCN1CCN(c2ccccn2)CC1: not satisfied
CCNC(=O)OCCn1c(=O)n(CC=CCN2CC=C(c3ccccc3)CC2)c2ccccc21: satisfied

Ask: Could you verify whether the entry `Cc1cccc(N2CCN(CCn3c(=O)n(CCN4CCCCC4)c4ccccc43)CC2)c1C` shows inhibition at 0.1 µM of no less than 90%?
Result: satisfied

Ask: Does the compound `O=c1n(C/C=C\CN2CCN(c3ccccn3)CC2)c2ccccc2n1CCO` have recorded inhibition at 0.1 µM that is 90% or more?
Result: not satisfied

Ask: Check if inhibition at 0.1 µM >= 90% (inclusive). Item: `O=c1n(C/C=C\CN2CC=C(c3ccccc3)CC2)c2ccccc2n1CCO`
Result: satisfied

====

Exercise: state measured inhibition at 10 µM for each of the compounds provided.
System: CHO/5-HT1A cells (Homo sapiens, UniProt P08908)
Construct: expressed in transfected cells; host or cells: CHO/5-HT1A cells
Protocol notes: 5-HT1A Functional assay (cAMP)
Type: cell-based
Run conditions: 10 µM compound; % inhibition of the cAMP accumulation induced by 10 µM FSK; read-out: 5-HT1A cAMP % inhib.
Give bare numbers, in %.

CC(=O)NCCn1c(=O)n(C/C=C\CN2CCN(c3cccc(C(F)(F)F)c3)CC2)c2ccccc21: 86
O=c1n(C/C=C\CN2CCN(c3cccc(C(F)(F)F)c3)CC2)c2ccccc2n1CCO: 84
CCNC(=O)OCCn1c(=O)n(C/C=C/CN2CCN(c3cccc(Cl)c3)CC2)c2ccccc21: 77
CCNC(=O)OCCn1c(=O)n(CCCCN2CCN(c3cccc(C(F)(F)F)c3)CC2)c2ccccc21: 64
Cc1cccc(N2CCN(CCCCn3c(=O)n(CCN4CCCCC4)c4ccccc43)CC2)c1C: 44

Batch of 3 compounds: report inhibition at 10 µM for each.
1. O=c1n(CCO)c2ccccc2n1CCCCN1CCN(c2cccc(Cl)c2)CC1
2. CCNC(=O)OCCn1c(=O)n(CC=CCN2CC=C(c3ccccc3)CC2)c2ccccc21
3. O=c1n(C/C=C\CN2CC=C(c3ccccc3)CC2)c2ccccc2n1CCO

Result:
1: 65; 2: 60; 3: 52

====

System: CHO/5-HT1A cells (Homo sapiens)
Construct: expressed in transfected cells; host or cells: CHO/5-HT1A cells
Sequence (P08908 1-422): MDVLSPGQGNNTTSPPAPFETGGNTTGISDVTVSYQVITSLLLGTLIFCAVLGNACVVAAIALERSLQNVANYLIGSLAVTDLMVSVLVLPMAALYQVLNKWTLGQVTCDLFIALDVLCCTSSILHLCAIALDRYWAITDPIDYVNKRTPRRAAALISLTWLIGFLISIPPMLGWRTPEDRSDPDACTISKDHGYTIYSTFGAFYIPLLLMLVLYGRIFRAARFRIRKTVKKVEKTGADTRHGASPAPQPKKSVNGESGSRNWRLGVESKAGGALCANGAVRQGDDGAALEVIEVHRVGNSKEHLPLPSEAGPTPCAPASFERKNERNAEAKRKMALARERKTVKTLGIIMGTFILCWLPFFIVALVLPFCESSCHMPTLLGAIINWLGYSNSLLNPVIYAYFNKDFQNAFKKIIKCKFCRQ
Protocol notes: 5-HT1A Functional assay (cAMP)
Type: cell-based
Run conditions: 10 µM compound; % inhibition of the cAMP accumulation induced by 10 µM FSK; read-out: 5-HT1A cAMP % inhib.
Procedure: CHO/5-HT1A cells were random seeded at a density of about 200,000/well in 24 well plates the day prior to the experiment. On the day of the experiment, cells were pretreated for 15 min at 37 °C with 500 µM isobuthylmethylxantine (IBMX) dissolved in culture medium without serum. […] For the cAMP evaluation, samples were properly diluted and the cAMP content was measured by an enzymeimmunoassay system.
Property label: inhibition at 10 µM (%)
Give bare numbers, in %.

Worked set:
Cc1cccc(N2CCN(CCCCn3c(=O)n(CCO)c4ccccc43)CC2)c1C: 45
O=c1n(C/C=C\CN2CCN(c3cccc(Cl)c3)CC2)c2ccccc2n1CCO: 82
CC(=O)NCCn1c(=O)n(C/C=C\CN2CCN(c3cccc(C)c3C)CC2)c2ccccc21: 66

Continue with the compound presented below.
Ask: Reported inhibition at 10 µM, compound `CCNC(=O)OCCn1c(=O)n(CC=CCN2CCN(c3cccc(C(F)(F)F)c3)CC2)c2ccccc21` : ____
Result: 84

====

System: 5-HT1A human receptors (Homo sapiens)
Construct: expressed in transfected cells; host or cells: CHO cells
Sequence (P08908 1-422): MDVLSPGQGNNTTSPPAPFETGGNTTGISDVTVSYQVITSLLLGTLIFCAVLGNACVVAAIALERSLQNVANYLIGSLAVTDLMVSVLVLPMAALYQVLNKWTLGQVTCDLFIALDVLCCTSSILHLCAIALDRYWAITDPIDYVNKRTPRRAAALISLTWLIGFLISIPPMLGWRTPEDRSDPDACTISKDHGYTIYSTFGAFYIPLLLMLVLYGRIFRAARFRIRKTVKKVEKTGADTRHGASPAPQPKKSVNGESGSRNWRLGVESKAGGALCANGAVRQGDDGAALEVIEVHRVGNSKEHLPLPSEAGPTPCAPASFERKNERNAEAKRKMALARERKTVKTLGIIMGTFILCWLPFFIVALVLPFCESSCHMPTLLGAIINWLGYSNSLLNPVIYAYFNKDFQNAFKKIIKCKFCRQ
Protocol notes: 5-HT1A Radioligand Receptor Binding Assay ([3H]-8-OH-DPAT, CHO cell membranes)
Run conditions: compound at 10^-7 M, singlicate; [3H]-8-OH-DPAT 0.6-0.7 nM; read-out: 5-HT1A receptor binding assay % inhib. (10^-7 M)
Decision: inhibition at 0.1 µM >= 90% yields 1.0, all other cases yield 0.0.

CCNC(=O)OCCn1c(=O)n(C/C=C/CN2CCN(c3ccccc3)CC2)c2ccccc21 [compound 412]: 1.0
CCNC(=O)OCCn1c(=O)n(CCCCN2CCN(c3ccccc3)CC2)c2ccccc21 [compound 75]: 0.0
O=c1n(CCO)c2ccccc2n1CCN1CCN(c2cccc(Cl)c2)CC1 [compound 183]: 1.0
O=c1n(C/C=C\CN2CCN(c3ccccc3)CC2)c2ccccc2n1CCN1CCCCC1 [compound 310]: 0.0
O=c1n(CCN2CC=C(c3ccccc3)CC2)c2ccccc2n1CCN1CCCCC1 [compound 150]: 0.0

Then there is this compound:
Ask: Please check the record COCCn1c(=O)n(CCN2CCN(c3cccc(C)c3C)CC2)c2ccccc21 [compound 177] and state if its inhibition at 0.1 µM is at or above 90%.
Result: 1.0
